- Tested system: OCT1 Phe244Ala variant (Homo sapiens, UniProt O15245, F244A)
- Method notes: Uptake screening (transport ratio over empty vector), HEK293 cells overexpressing OCT1 Phe244Ala variant;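 further: stably transfected HEK293 cells, intracellular substrate quantified by HPLC-tandem mass spectrometry in cell lysates, uptake in HBSS+ buffer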
- Type: cell-based
- Parameters: expressed in transfected cells
- Cond: uptake ratio over empty vector, HEK293 cells overexpressing OCT1 Phe244Ala
Assign Mean_transport_ratio_Phe244Ala to each entry below.
One number for each entry.

Recorded Mean_transport_ratio_Phe244Ala, per entry:
- Compound: "CC1(C)N=C(N)N=C(N)N1c1ccc(Cl)cc1"
  Mean_transport_ratio_Phe244Ala: 16.588
- Compound: "[H]/N=C(\\N/C(=N/[H])Nc1ccc(Cl)cc1)NC(C)C"
  Mean_transport_ratio_Phe244Ala: 10.221
- Compound: "COc1cc2c(cc1OC)[C@H](C)NCC2"
  Mean_transport_ratio_Phe244Ala: 1.211
- Compound: "CNC[C@H](O)c1cccc(O)c1 [Phenylephrine]"
  Mean_transport_ratio_Phe244Ala: 3.61

# context switch: different compound, same Mean_transport_ratio_Phe244Ala
Which Mean_transport_ratio_Phe244Ala value is on record for Cc1cc(C(C)(C)C)c(O)c(C)c1CC1=NCCN1 ?
8.896

----------
- Tested system: OCT1 WT (Homo sapiens)
- Sequence (O15245 1-554): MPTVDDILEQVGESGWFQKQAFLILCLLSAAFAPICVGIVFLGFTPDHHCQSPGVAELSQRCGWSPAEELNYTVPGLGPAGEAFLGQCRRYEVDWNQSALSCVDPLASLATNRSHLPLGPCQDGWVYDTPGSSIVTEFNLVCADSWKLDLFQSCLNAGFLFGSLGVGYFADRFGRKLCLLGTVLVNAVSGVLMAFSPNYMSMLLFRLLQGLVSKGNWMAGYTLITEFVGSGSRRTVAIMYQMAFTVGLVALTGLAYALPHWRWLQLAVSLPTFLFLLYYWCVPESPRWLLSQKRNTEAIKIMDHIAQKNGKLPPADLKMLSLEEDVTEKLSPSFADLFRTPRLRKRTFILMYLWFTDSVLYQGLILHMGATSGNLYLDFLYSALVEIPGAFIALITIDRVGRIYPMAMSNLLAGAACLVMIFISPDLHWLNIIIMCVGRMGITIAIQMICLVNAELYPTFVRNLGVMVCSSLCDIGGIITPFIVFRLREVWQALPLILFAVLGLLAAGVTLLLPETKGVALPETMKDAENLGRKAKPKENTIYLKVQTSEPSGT
- Method notes: Uptake screening (transport ratio over empty vector), HEK293 cells overexpressing OCT1 WT;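 further: intracellular substrate levels quantified by HPLC–tandem mass spectrometry after uptake in HBSS+ buffer at 37 °C, stable Flp-In HEK293 lines, fold change versus empty vector–transfected cells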
- Assay type: cell-based
- Parameters: expressed in transfected cells
- Cond: uptake ratio over empty vector, HEK293 cells overexpressing OCT1 WT
Assay readout: Mean_transport_ratio_WT
Numbers only.

- Molecule: "CC(CCc1ccc(O)cc1)NCC(O)c1ccc(O)cc1 (stereo not drawn)"
  Mean_transport_ratio_WT: 6.92
- Molecule: "C=CCN1CCCC1CNC(=O)c1cc(S(N)(=O)=O)cc(OC)c1OC (stereo not drawn) [Veralipride]"
  Mean_transport_ratio_WT: 1.907
- Molecule: "CC(C)(C)NCC(O)c1ccc(O)c(O)c1 (stereo not drawn)"
  Mean_transport_ratio_WT: 5.025

Dear colleague, could you please provide Mean_transport_ratio_WT for the molecules listed below?
1. CC(NCCc1ccc(O)cc1)C(O)c1ccc(O)cc1 (stereo not drawn)
2. Cc1cc(C(C)(C)C)cc(C)c1CC1=NCCN1
3. CCC1(C2=NCCN2)Cc2ccccc2O1 (stereo not drawn)
4. CC[N+](C)(CC)CCOC(=O)C(O)(c1ccccc1)C1CCCCC1 (stereo not drawn)
5. NCCc1c[nH]c2ccccc12
6. O=C(O[C@H]1C[C@H]2CC[C@@H](C1)[N+]21CCCC1)C(O)(c1ccccc1)c1ccccc1
7. Cc1cc(C(C)(C)C)c(O)c(C)c1CC1=NCCN1
8. CCCCNC(=N)NC(=N)N

1: 8.916; 2: 2.256; 3: 1.81; 4: 32.636; 5: 2.619; 6: 27.542; 7: 8.039; 8: 33.648

Recorded values, source paper PMC11602988.
